Items are presented alongside their recorded growth inhibition.
# assayProtocol: NCI Yeast Anticancer Drug Screen. Data for the bub3 strain (AID 167)
# measurementContext: S. cerevisiae bub3 mutant strain, at 50.0 µM, active compounds read high
This is part of a sample that, as a whole, favours compounds with a hit. Of some 79,000 tested, about 15% had one in any assay.
Express the result in % but write the number alone.

Worked cases, answers included:
{"columns": ["molecule", "growth inhibition / %"],
 "data": [
  ["O=C(OC1CC2CCC1C2)c1cc([N+](=O)[O-])cc([N+](=O)[O-])c1 (stereo not given)", -3.7],
  ["COCC(OC)C(Cl)C(=O)Nc1ccc(Br)cc1 (stereo not given)", 28.9],
  ["CCOC(=O)C1=CCOc2cc(N(C)C)ccc21", 8.75]
]}

Query string: Kindly indicate its recorded growth inhibition. Item: `Cc1ccc2c(c1)OC(=O)CC2`
Result string: -4.1
